B1: TRAF3IP2 (parent)
chain: FMEKRNQWLVSQLSAASPDTGHDS

# Variants of: B1
# assay-details: protein stability index of a GFP-peptide fusion (GPS, HEK-293T) (PSI 1-6); higher = more stable;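 further: lentivirally expressed fusions sorted by FACS into six bins by GFP to DsRed ratio, PSI derived from sequencing read proportions per bin multiplied by bin number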
# test-settings: c terminus: a fixed tail appended

| monomer-sequence | protein stability index |
| --- | --- |
| FMEKRNQWLYSQLSAASPDTGHDS | 2.5 |
| FMEKRNQWLVSQLSAASPDLGHDS | 1.96 |
| FMEKRDQWLVSQLSAASPDTGHDS | 2.73 |
| FHEKRNQWLVSQLSAASPDTGHDS | 1.58 |
| FMEKRNQWAVSQLSAASPDTGHDS | 2.19 |
| FMEKRNQWLVSQLSAASPDTGHAS | 2.49 |
| FMEKRNQWLVSQLSAASPDWGHDS | 1.02 |
| FMEKRNQWLVSQLSAASPDTGHIS | 1.65 |
| FMEKRNQWLVDQLSAASPDTGHDS | 3.79 |
| FMEKRNQWLVSMLSAASPDTGHDS | 1.68 |
| FMEKRNQWLVSQLSANSPDTGHDS | 2.9 |
| FMEKRNQWLVSQLSAASPDTGRDS | 1.82 |
| FMEKRNQWHVSQLSAASPDTGHDS | 3.82 |
| FKEKRNQWLVSQLSAASPDTGHDS | 4.28 |
| FMEKRNQQLVSQLSAASPDTGHDS | 4.63 |
| FMEKRNQWLVSQLRAASPDTGHDS | 2.39 |
| FMEKRNQWLVSQLSAASPDTTHDS | 2.44 |
| FMEKRNQWLVSQLSAASMDTGHDS | 2.22 |
| FMEKRNQWLVTQLSAASPDTGHDS | 2.19 |
| GMEKRNQWLVSQLSAASPDTGHDS | 4.26 |
| FMEKRQQWLVSQLSAASPDTGHDS | 1.91 |
| FMEKRNQWLVSQLSAASIDTGHDS | 2.69 |
| FMEKTNQWLVSQLSAASPDTGHDS | 2.16 |
| FMEKRNQWLVSQLSAASPNTGHDS | 2.4 |
| FMEKRNQWLVSQLSAASPDTGHTS | 2.57 |
| FMEKRNQWLVSQLSAASPDTGHDM | 2.09 |
| FMEKRNQWLVSQLSAKSPDTGHDS | 2.09 |
| FMEKRNQWLVSQLSAASPDTGHDW | 2 |
| FMEKRNQWLVSQLSAASPVTGHDS | 1.92 |
| FMEKRNWWLVSQLSAASPDTGHDS | 2.86 |
| FMEKRNQWLVSQLYAASPDTGHDS | 1.63 |
| FMEKRNQWLVSQLSAASPRTGHDS | 2.9 |
| FMEKRNQWLVSELSAASPDTGHDS | 3.33 |
| FMEKRNQWLVSQLDAASPDTGHDS | 3.29 |
| FMEKRNQWLVSFLSAASPDTGHDS | 1.94 |
| FFEKRNQWLVSQLSAASPDTGHDS | 3.6 |
| FMEKRNQWLVSQLSAASPDTGHDL | 2.22 |
| FMEKRNQWLVIQLSAASPDTGHDS | 2.06 |
